# Test details: Acute toxicity, oral
# Experimental context: guinea pig, in vivo; guinea pigs, increasing oral dose
Counter-ions that a name gives are not always drawn.
Property measured: LD50

Inquiry: Given the molecule Cc1ccc2c(c1)[C@@]1(C)CCC(=O)[C@@H](NC(=O)CN3CCCC3)[C@H]1O2 (relative stereo) [Example 7] , what is its reported LD50?
Reply text: ~800 mg/kg

Inquiry: Query (molecule): Cc1ccc2c(c1)[C@@]1(C)CCC(=O)[C@@H](NC(=O)CCN(C)CCN(C)C)[C@H]1O2 (relative stereo) [Example 18] ; field requested: LD50
Reply text: > 1000 mg/kg

Inquiry: Report LD50 for Cc1ccc2c(c1)[C@@]1(C)CCC(=O)[C@@H](NC(=O)CCN3CCNCC3)[C@H]1O2 (relative stereo) [Example 13] please.
Reply text: > 1000 mg/kg

Inquiry: What LD50 value was documented for this molecule, Cc1ccc2c(c1)[C@@]1(C)CCC(=O)[C@@H](NC(=O)CCN3CCCC3)[C@H]1O2 (relative stereo) [Example 11] ?
Reply text: ~600 mg/kg

Inquiry: Recorded LD50 for Cc1ccc2c(c1)[C@@]1(C)CCC(=O)[C@@H](NC(=O)CCN3CCCCC3)[C@H]1O2 (relative stereo) [Example 12] , please?
Reply text: ~400 mg/kg

More entries:
Inquiry: LD50 for Cc1ccc2c(c1)[C@@]1(C)CCC(=O)[C@@H](NC(=O)CCN3CCN(Cc4ccccc4)CC3)[C@H]1O2 (relative stereo) [Example 17] ?
Reply text: > 1000 mg/kg

Inquiry: Returns the measured LD50 for the input molecule. Input: Cc1ccc2c(c1)[C@@]1(C)CCC(=O)[C@@H](NC(=O)CCN3CCN(C)CC3)[C@H]1O2 (relative stereo) [Example 1, dihydrochloride]
Reply text: 1480 mg/kg

Inquiry: Bench note: what LD50 did CCN(CC(=O)N[C@@H]1C(=O)CC[C@]2(C)c3cc(C)ccc3O[C@H]12)Cc1ccccc1 (relative stereo) [Example 8] show?
Reply text: > 800 mg/kg

Inquiry: Consider the molecule shown here: Cc1ccc2c(c1)[C@@]1(C)CCC(=O)[C@@H](NC(=O)CCN(C)C)[C@H]1O2 (relative stereo) [Example 10] What is its recorded LD50?
Reply text: 500 to 1000 mg/kg

Inquiry: If you can, please state the reported LD50 value of CC(=O)N1CCN(CCC(=O)N[C@@H]2C(=O)CC[C@]3(C)c4cc(C)ccc4O[C@H]23)CC1 (relative stereo) [Example 20] .
Reply text: > 1000 mg/kg

====

# Test details: Acute toxicity, oral
# Experimental context: guinea pig, in vivo; guinea pigs, increasing oral dose
// values below are reported LD50

Inquiry: Recorded LD50 for CCN1CCN(CCC(=O)N[C@@H]2C(=O)CC[C@]3(C)c4cc(C)ccc4O[C@H]23)CC1 (relative stereo) , please?
Reply text: > 1000 mg/kg

New cases:
Inquiry: Data request, read-out LD50, for Cc1ccc2c(c1)[C@@]1(C)CCC(=O)[C@@H](NC(=O)CN3CCN(C)CC3)[C@H]1O2 (relative stereo)
Reply text: > 800 mg/kg

Inquiry: Given the entry CCOC(=O)N1CCN(CCC(=O)N[C@@H]2C(=O)CC[C@]3(C)c4cc(C)ccc4O[C@H]23)CC1 (relative stereo) , report its measured LD50.
Reply text: > 1000 mg/kg
